# Increment in enzymatic activity (%) per entry
Tested on: Tyrosinase
Assay: Enzymatic assay of tyrosinase (L-tyrosine substrate, absorbance 280 nm)
Assay type: biochemical
Conditions: compound 5 mM; % enzymatic activity - 100
MEASURED ENDPOINT: Increment in enzymatic activity (%)

NCCCNCCCCNC1CCCCC1 = 35.31
CNCCCCNCCCN = 5.16
CCNCCCCNCCCN = 21.50
CCCNCCCCNCCCN = 31.29

---

# Enzymatic activity (%) per entry
System: Tyrosinase
Experiment: Enzymatic assay of tyrosinase (L-tyrosine substrate, absorbance 280 nm)
Assay type: biochemical
Conditions: compound 5 mM; compared to activity of the enzyme without active compounds (100%)
MEASURED ENDPOINT: Enzymatic activity (%)

CCNCCCCNCCCN = 121.50%
NCCCNCCCCNC1CCCCC1 = 135.31%
CNCCCCNCCCN = 105.16%
CCCNCCCCNCCCN = 131.29%
